This collection of values is drawn from ChEMBL document CHEMBL1671682.

# Tested on: H9
# experiment: Cytotoxicity against human H9 cells by MTS assay
# Type: functional, cell-based
metric.name: IC50

Cc1cn([C@H]2C[C@H](N=[N+]=[N-])[C@@H](CO)O2)c(=O)[nH]c1=O [ZIDOVUDINE] yielded IC50 of > 100 nM

----------
# experiment: Cytotoxicity against human AA5 cells by MTS assay
# Type: cell-based
metric.name: IC50

Cc1cn([C@H]2C[C@H](N=[N+]=[N-])[C@@H](CO)O2)c(=O)[nH]c1=O [ZIDOVUDINE] yielded IC50 of > 0.1 µM
